Hello, the source for this data is ChEMBL document CHEMBL1201862, in case you need it.

Tested on: ACHN
PROTOCOL_NOTES: NCI tumour cell line growth inhibition, 48 h
Active and inactive are the calls of the source. Rule as the data show it: active = GI50 up to about 1.1 µM and inactive = higher.
Outcomes: T = active, F = inactive

1. COc1ccc(NC(=O)CC(=O)N/N=C(\C)c2cc3ccccc3oc2=O)cc1	F
2. CN(C(=O)c1ccco1)C(=S)N1CCN(c2ccccc2)CC1	F
3. N#Cc1nc(Nc2ccc(Cl)cc2)sc1N	F
4. CCOC(=O)C(NCc1cccc(C(F)(F)F)c1)(NC(=O)c1ccccc1)C(F)(F)F (stereo unspecified)	F
5. Clc1c(Cl)c2c(Cl)c(Cl)c1C[PH](c1ccccc1)(c1ccccc1)CC[PH](c1ccccc1)(c1ccccc1)Cc1c(Cl)c(Cl)c(c(Cl)c1Cl)C[PH](c1ccccc1)(c1ccccc1)CC[PH](c1ccccc1)(c1ccccc1)C2	F
6. N#Cc1c(C#N)c(-c2ccco2)n(-c2ccccc2)c1N	F
7. COC(=O)C1CC(=O)CCC1c1ccccc1 (stereo unspecified)	F
8. Cc1nc2sccn2c1C(=O)NN	F
9. O=C(NC(COC(=O)C(Cc1ccccc1)NC(=O)c1ccccc1)Cc1ccccc1)c1ccccc1 (stereo unspecified)	F
10. CSc1nc(C#N)c(/N=C\N(C)C)n1C	F
11. O=C1CC2CCN(C(=O)c3ccccc3)CC2CCN1.O=C1CCC2CC(C(=O)c3ccccc3)CCC2CN1 (stereo unspecified)	F
12. C[N+]1(c2ccccc2)C=C(c2ccccc2)SC1=S (stereo unspecified)	F
13. COc1ccc2c(-c3ccc(O)cc3)c(Oc3ccccc3)c(=O)oc2c1	F
14. O=C(CC1(O)C(=O)Nc2c(Cl)ccc(Cl)c21)c1ccc(F)cc1 (stereo unspecified)	F
15. Cc1ccc(-c2cc(-c3ccc(Cl)cc3)nc(/N=C3\C(=O)N(CN(C)C)c4ccccc43)n2)cc1	F
16. CC(C)(C)C1=C(Br)C(O)(C(C)(C)C)OP1(=O)c1ccccc1 (stereo unspecified)	F
17. Cc1c(-c2cc(-c3ccccc3)n[nH]c2=O)c2ccccc2n1C	F
18. ClCCC[Si]12OCCN(CCO1)CCO2	F
19. N#Cc1ccc(Sc2nc3ccccc3[nH]2)cc1	F
20. COc1cc2cc(C(=O)N3CC(CCl)c4ccc(N(C)C)cc43)[nH]c2c(OC)c1OC (stereo unspecified)	T
21. COc1cc2c(cc1OC)C1CCc3ccccc3CN1CC2 (stereo unspecified)	F

----------
Test system: OVCAR-5
PROTOCOL_NOTES: NCI tumour cell line growth inhibition, 48 h
The source made the active and inactive calls. Rule as the data show it: active = GI50 up to about 1.1 µM and inactive = higher.
RESULT_TYPE: GI50

1) CCCCOC(=O)NC(Nc1ccc(S(=O)(=O)Nc2ncccn2)cc1)(C(F)(F)F)C(F)(F)F	> 100 µM (inactive)
2) CC1(C)CC(=O)c2c(nc3c(ccc4ccccc43)c2-c2ccc(NC(=O)CCCCC(=O)Nc3ccc(-c4c5c(nc6c4ccc4ccccc46)CC(C)(C)CC5=O)cc3)cc2)C1	30.9 µM (inactive)
3) CC1C(O)Oc2cc3c(cc2C1c1ccccc1O)OCO3 (stereo not drawn)	45.7 µM (inactive)
4) Nc1nc(SCCC/C=C/B(O)O)nc2c1ncn2C1OC(COP(=O)(O)O)C(O)C1O (stereo not drawn)	> 203 µM (inactive)
5) OC(CC(CC(O)(C(F)(F)F)C(F)(F)F)=NN=C(CC(O)(C(F)(F)F)C(F)(F)F)CC(O)(C(F)(F)F)C(F)(F)F)(C(F)(F)F)C(F)(F)F	> 10 µM (inactive)
6) Cn1c2ccccc2c2ccc3c(c21)C(=O)c1ccc2c4ccccc4n(C)c2c1C3=O	> 100 µM (inactive)
7) CN(C)Cc1cc(C(=O)/C=C/c2ccc([N+](=O)[O-])cc2)cc(CN(C)C)c1O	16.6 µM (inactive)
8) C1=CC2(C=CC13O[C@H](C1CCCCC1)[C@@H](C1CCCCC1)O3)O[C@H](C1CCCCC1)[C@@H](C1CCCCC1)O2	> 50 µM (inactive)
